system: CDK1/CyclinB (Homo sapiens)
Sequence (P06493 whole entry, species assumed): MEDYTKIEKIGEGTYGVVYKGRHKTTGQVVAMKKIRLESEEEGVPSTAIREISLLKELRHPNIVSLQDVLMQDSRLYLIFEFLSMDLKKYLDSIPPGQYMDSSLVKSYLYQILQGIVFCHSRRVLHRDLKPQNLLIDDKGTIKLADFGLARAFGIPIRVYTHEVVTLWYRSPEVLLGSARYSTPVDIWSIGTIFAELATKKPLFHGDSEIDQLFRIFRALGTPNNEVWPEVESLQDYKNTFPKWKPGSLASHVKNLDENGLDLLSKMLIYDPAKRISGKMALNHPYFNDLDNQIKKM
Sequence (P14635 whole entry partner, species assumed): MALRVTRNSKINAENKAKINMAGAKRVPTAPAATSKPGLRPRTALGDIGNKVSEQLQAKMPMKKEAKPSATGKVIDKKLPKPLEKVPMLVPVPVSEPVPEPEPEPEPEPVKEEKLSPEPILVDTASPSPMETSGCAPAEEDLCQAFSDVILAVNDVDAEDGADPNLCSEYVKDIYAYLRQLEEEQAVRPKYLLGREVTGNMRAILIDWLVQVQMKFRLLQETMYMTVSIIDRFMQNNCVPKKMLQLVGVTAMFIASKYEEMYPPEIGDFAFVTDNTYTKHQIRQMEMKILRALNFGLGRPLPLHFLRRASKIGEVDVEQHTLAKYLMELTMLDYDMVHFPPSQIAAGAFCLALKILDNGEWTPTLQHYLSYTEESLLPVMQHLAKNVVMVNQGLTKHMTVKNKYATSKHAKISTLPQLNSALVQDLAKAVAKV
experiment notes: ADP Glo kinase assay, CDK1/CyclinB
Format: biochemical
applied conditions: compound at 1 μM, read-out: Residual enzymatic activity (%) at 1 μM, CDK1 B
value type: remaining activity at 1 µM (%)

Solved cases below.
CCS(=O)(=O)N1CCN(c2ccc(Nc3nccc(-c4cnc5ccc(Br)cn45)n3)cn2)CC1 [Compound 59]    70
CN1CCN(Cc2ccc(Nc3nccc(-c4cnc5ccc(Br)cn45)n3)cn2)CC1 [Compound 77]    74
Brc1ccc2ncc(-c3ccnc(Nc4ccc(N5CCCC5)nc4)n3)n2c1 [Compound 26]    60
O=C(c1ccc(Nc2ncc(F)c(-c3cnc4ccc(-c5ccccc5)cn34)n2)cn1)N1CCCCC1 [Compound 32]    96
CC(C)N1CCN(c2ccc(Nc3nccc(-c4cnc5ccc(-c6ccccc6)cn45)n3)cn2)CC1 [Compound 39]    46

[1] CC(=O)N1CCN(c2ccc(Nc3nccc(-c4cnc5ccc(Br)cn45)n3)cn2)CC1 [Compound 44]
[2] c1ccc(-c2ccc3ncc(-c4ccnc(Nc5ccc(N6CCCC6)nc5)n4)n3c2)cc1 [Compound 27]
Query string: Which entry has a larger number for remaining activity at 1 µM, 1 or 2 ? Lab note: record the label of whichever item you select.
Result string: 2
(2: 84%, 1: 56%)

* * *

system: CDK4/CyclinD1 (Homo sapiens, UniProt P11802)
Sequence (P11802 whole entry, species assumed): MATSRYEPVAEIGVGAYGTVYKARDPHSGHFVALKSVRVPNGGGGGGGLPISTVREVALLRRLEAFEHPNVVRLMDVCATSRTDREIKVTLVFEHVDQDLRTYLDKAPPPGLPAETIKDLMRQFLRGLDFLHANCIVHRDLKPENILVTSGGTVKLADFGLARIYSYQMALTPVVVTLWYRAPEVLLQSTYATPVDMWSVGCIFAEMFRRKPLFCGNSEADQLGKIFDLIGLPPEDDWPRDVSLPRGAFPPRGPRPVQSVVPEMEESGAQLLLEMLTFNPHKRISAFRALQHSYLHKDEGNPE
Sequence (P24385 whole entry partner, species assumed): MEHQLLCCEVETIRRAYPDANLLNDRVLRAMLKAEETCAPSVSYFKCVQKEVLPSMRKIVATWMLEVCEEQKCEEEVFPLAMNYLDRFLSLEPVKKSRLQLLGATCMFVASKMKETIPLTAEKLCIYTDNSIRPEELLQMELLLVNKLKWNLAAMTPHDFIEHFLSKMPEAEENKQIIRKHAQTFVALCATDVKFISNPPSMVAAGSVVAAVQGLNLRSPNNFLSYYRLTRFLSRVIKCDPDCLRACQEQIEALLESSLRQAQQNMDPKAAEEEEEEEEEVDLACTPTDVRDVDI
experiment notes: ADP Glo kinase assay, CDK4/CyclinD1
Assay type: biochemical
applied conditions: compound at 1 μM, read-out: Residual enzymatic activity (%) at 1 μM, CDK4 D1
value type: remaining activity at 1 µM (%)

Solved cases below.
Fc1cnc(Nc2ccc(N3CCN(CCN4CCOCC4)CC3)nc2)nc1-c1cnc2ccc(-c3ccccc3)cn12    65
CC(C)N1CCN(c2ccc(Nc3nccc(-c4cnc5ccc(-c6ccsc6)cn45)n3)cn2)CC1    48
O=C(NC1CC1)c1ccc(Nc2ncc(F)c(-c3cnc4ccc(-c5ccccc5)cn34)n2)cn1    96
c1ccc(-c2ccc3ncc(-c4ccnc(Nc5ccc(N6CCC6)nc5)n4)n3c2)cc1    94
COc1ccc(-c2ccc3ncc(-c4ccnc(Nc5ccc(N6CCN(C)CC6)nc5)n4)n3c2)cn1    68
CCCNc1ccc(Nc2nccc(-c3cnc4ccc(Br)cn34)n2)cn1    54

[A] CC(=O)N1CCN(c2ccc(Nc3nccc(-c4cnc5ccc(Br)cn45)n3)cn2)CC1
[B] CCN1CCN(Cc2ccc(Nc3nccc(-c4cnc5ccc(Br)cn45)n3)cn2)CC1
Query string: Which entry has a larger number for remaining activity at 1 µM, A or B ? Lab note: record the label of whichever item you select.
Result string: A
(A: 84%, B: 48%)

* * *

system: FLT3-ITD (Homo sapiens, UniProt P36888)
Sequence (P36888 1-993): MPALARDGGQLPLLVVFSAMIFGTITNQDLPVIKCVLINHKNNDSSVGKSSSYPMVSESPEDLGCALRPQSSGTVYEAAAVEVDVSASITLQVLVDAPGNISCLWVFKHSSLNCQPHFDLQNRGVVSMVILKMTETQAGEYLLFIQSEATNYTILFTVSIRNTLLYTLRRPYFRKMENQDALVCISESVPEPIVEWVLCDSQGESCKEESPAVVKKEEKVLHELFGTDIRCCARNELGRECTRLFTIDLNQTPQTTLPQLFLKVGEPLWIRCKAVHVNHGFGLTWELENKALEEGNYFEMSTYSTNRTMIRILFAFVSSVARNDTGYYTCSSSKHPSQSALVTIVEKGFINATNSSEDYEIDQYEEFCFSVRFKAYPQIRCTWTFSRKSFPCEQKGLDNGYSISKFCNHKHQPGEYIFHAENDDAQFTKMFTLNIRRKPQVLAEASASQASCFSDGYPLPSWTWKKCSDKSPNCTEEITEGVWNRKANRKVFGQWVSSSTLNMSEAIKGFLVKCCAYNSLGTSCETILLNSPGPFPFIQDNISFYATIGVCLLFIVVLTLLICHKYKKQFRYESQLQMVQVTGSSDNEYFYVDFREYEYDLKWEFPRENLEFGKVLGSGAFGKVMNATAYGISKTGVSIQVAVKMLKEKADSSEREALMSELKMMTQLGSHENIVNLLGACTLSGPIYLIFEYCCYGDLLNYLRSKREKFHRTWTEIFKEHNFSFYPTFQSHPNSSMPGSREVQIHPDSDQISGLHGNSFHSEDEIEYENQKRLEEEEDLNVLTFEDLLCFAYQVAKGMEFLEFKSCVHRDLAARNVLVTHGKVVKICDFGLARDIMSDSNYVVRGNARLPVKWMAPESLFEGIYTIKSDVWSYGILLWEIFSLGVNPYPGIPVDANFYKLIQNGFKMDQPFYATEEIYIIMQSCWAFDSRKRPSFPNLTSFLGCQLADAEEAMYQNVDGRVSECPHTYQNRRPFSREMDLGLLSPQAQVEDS
experiment notes: ADP Glo kinase assay, FLT3-ITD
applied conditions: Km ATP 100 μM, read-out: Enzymatic inhibition, Ki, FLT3-ITD
value type: Ki (nM)

Solved cases below.
CN1CCN(c2ccc(Nc3nccc(-c4cnc5ccc(Cl)cn45)n3)cn2)CC1 [Compound 22]    5
CC(=O)N1CCN(c2ccc(Nc3ncc(C)c(-c4cnc5ccccn45)n3)cn2)CC1 [Compound 11]    20

[a] Cc1cnc(Nc2ccc(N3CCN(C)CC3)nc2)nc1-c1cnc2ccc(-c3ccccc3)cn12 [Compound 50]
[b] Brc1ccc2ncc(-c3ccnc(Nc4ccc(N5CCNCC5)nc4)n3)n2c1 [Compound 42]
Query string: Lab note: check whether a or b has the lower measured Ki. Lab note: record the label of whichever item you select.
Result string: b
(b: 9 nM, a: 210 nM)
